METHOD: Clinical pharmacokinetics, 25 and 75 mg, compared to Adderall XR and Dexedrine Spansule
SETUP_CONDITIONS: human, in vivo, po, 75 mg, L-lysine-d-amphetamine intact conjugate AUCinf, oral 75 mg L-lysine-d-amphetamine, mean
READOUT_LABEL: AUC(0-inf) (ng·h/mL)
One number for each entry, in ng·h/mL.

input: Form field: reported AUC(0-inf) of CC(Cc1ccccc1)NC(=O)C(N)CCCCN (stereo not shown)
output: 59.5

----------
METHOD: Clinical pharmacokinetics, 25 and 75 mg, compared to Adderall XR and Dexedrine Spansule
SETUP_CONDITIONS: human, in vivo, po, 25 mg, L-lysine-d-amphetamine intact conjugate concentration, oral 25 mg L-lysine-d-amphetamine, 0 h, individual subjects
READOUT_LABEL: concentration at 0 h (ng/mL)
Give bare numbers, in ng/mL.

input: Form field: reported concentration at 0 h of CC(Cc1ccccc1)NC(=O)C(N)CCCCN (stereo not shown)
output: 0

----------
METHOD: Clinical pharmacokinetics, 25 and 75 mg, compared to Adderall XR and Dexedrine Spansule
SETUP_CONDITIONS: human, in vivo, po, 25 mg, L-lysine-d-amphetamine intact conjugate concentration, oral 25 mg L-lysine-d-amphetamine, 3 h, mean
READOUT_LABEL: concentration at 3 h (ng/mL)
One number for each entry, in ng/mL.

input: Form field: reported concentration at 3 h of CC(Cc1ccccc1)NC(=O)C(N)CCCCN (stereo not shown)
output: 0

----------
METHOD: Clinical pharmacokinetics, 25 and 75 mg, compared to Adderall XR and Dexedrine Spansule
SETUP_CONDITIONS: human, in vivo, po, 25 mg, L-lysine-d-amphetamine intact conjugate concentration, oral 25 mg L-lysine-d-amphetamine, 5 h, mean
READOUT_LABEL: concentration at 5 h

input: Form field: reported concentration at 5 h of CC(Cc1ccccc1)NC(=O)C(N)CCCCN (stereo not shown)
output: 0 ng/mL

----------
METHOD: Clinical pharmacokinetics, 25 and 75 mg, compared to Adderall XR and Dexedrine Spansule
SETUP_CONDITIONS: human, in vivo, po, 75 mg, L-lysine-d-amphetamine intact conjugate concentration, oral 75 mg L-lysine-d-amphetamine, 48 h, individual subjects
READOUT_LABEL: concentration at 48 h (ng/mL)
Give bare numbers, in ng/mL.

input: Form field: reported concentration at 48 h of CC(Cc1ccccc1)NC(=O)C(N)CCCCN (stereo not shown)
output: 0

----------
METHOD: Clinical pharmacokinetics, 25 and 75 mg, compared to Adderall XR and Dexedrine Spansule
SETUP_CONDITIONS: human, in vivo, po, 25 mg, L-lysine-d-amphetamine intact conjugate concentration, oral 25 mg L-lysine-d-amphetamine, 1 h, mean
READOUT_LABEL: concentration at 1 h (ng/mL)
Answers are plain numbers, in ng/mL.

input: Form field: reported concentration at 1 h of CC(Cc1ccccc1)NC(=O)C(N)CCCCN [L-lysine-d-amphetamine]
output: 11.2

----------
METHOD: Clinical pharmacokinetics, 25 and 75 mg, compared to Adderall XR and Dexedrine Spansule
SETUP_CONDITIONS: human, in vivo, po, 75 mg, L-lysine-d-amphetamine intact conjugate concentration, oral 75 mg L-lysine-d-amphetamine, 5 h, mean
READOUT_LABEL: concentration at 5 h (ng/mL)
Answers are plain numbers, in ng/mL.

input: Form field: reported concentration at 5 h of CC(Cc1ccccc1)NC(=O)C(N)CCCCN (stereo not shown)
output: 0
